Origin of values: patent US9221808B2

Molecular target: UniProt:O75116
Sequence (O75116 whole entry, species assumed): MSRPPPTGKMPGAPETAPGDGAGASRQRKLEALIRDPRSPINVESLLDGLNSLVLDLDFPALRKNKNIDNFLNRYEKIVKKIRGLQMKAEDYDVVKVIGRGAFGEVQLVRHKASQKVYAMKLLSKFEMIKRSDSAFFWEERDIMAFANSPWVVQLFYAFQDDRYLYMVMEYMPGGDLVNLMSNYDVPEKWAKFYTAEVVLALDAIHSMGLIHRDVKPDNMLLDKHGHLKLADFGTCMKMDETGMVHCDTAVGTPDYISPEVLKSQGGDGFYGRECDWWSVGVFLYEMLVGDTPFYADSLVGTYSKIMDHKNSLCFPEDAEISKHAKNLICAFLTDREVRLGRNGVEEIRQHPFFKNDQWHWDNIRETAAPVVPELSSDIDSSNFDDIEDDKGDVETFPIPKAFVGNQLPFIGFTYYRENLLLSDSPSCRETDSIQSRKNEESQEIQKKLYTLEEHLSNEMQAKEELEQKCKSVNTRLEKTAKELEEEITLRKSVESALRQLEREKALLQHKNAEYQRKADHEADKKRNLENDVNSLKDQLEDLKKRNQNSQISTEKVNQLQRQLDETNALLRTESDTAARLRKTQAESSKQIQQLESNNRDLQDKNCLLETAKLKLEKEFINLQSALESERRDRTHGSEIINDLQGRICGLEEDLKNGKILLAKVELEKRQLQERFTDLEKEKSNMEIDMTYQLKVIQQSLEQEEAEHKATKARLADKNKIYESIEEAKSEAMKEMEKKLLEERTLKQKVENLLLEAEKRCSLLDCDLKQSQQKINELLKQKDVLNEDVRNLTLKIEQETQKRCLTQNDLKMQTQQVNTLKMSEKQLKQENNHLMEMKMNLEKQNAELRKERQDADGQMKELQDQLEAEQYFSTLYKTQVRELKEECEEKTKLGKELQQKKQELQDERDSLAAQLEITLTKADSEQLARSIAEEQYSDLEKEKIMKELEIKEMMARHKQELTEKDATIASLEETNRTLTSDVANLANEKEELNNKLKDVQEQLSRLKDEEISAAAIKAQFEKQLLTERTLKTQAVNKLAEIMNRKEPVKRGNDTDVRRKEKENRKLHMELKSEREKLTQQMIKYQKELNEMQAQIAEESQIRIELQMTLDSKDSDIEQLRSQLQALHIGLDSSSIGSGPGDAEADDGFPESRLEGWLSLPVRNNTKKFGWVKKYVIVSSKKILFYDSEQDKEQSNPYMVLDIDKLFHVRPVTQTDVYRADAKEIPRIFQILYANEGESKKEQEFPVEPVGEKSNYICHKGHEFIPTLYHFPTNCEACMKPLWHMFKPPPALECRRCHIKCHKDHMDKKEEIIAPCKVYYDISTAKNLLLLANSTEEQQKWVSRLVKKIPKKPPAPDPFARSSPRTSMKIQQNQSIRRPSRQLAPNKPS
Test: FRET-based Z'-Lyte kinase assay, ROCK2;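 further: kinase phosphorylates a coumarin/fluorescein FRET peptide, then a protease cleaves unphosphorylated peptide, read as donor/acceptor emission ratio after 400 nm excitation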
Type: biochemical
Conditions: read-out: ROCK2 IC50
metric.name: pIC50
Answers are plain numbers, as −log10 of the molar value.

Noted for O=C(Nc1nc(-c2ccncc2)cs1)C1COc2ccccc2O1 (stereo not shown) [CID5056270, reference compound] : its pIC50 reads 7.40

###

Molecular target: Aurora-A (Homo sapiens (Human), UniProt O14965)
Sequence (O14965 whole entry): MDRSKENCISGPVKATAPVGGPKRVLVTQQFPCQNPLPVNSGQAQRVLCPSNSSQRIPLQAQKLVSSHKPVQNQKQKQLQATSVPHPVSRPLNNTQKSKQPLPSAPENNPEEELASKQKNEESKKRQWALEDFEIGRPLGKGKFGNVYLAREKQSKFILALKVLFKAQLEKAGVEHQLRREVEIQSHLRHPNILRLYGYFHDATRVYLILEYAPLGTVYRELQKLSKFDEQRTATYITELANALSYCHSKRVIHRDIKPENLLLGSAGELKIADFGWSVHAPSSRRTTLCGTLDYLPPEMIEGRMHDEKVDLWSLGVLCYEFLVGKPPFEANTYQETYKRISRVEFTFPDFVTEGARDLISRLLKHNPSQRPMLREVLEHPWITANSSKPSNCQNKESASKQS
pIC50: −log10 of the molar value.
metric.name: pIC50

Reported pIC50 for O=C(Nc1nc(-c2ccncc2)cs1)C1COc2ccccc2O1 (stereo not shown) [CID5056270, reference compound] was < 4.00
